Molecular target: human recombinant 6His-Nterm SHP2 full-length (Thr2-Arg593) (Homo sapiens)
Construct: 6His-Nterm SHP2 full-length (Thr2-Arg593, R&D system); 6His (N)
Sequence (Q06124 2-593): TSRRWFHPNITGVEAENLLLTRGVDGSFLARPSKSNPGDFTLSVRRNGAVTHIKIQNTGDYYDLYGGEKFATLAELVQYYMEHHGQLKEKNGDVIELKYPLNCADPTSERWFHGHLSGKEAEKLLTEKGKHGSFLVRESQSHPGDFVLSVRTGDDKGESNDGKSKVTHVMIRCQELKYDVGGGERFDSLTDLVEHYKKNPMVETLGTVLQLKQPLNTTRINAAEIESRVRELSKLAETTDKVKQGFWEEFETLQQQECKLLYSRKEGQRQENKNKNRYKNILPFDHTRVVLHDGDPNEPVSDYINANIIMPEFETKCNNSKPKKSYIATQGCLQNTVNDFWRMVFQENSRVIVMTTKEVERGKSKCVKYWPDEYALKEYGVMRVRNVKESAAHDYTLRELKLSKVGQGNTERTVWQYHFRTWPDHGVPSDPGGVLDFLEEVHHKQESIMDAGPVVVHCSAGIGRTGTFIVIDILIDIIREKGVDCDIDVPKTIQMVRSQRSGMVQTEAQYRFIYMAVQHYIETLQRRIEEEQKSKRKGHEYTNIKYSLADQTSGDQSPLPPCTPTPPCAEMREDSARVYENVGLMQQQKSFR
Test: SHP2 Phosphatase Assay (DiFMUP fluorescence)
Conditions: SHP2 0.2 nM pre-incubated with 100 nM bi-phosphorylated activating peptide; compound 1000-0.05 nM, 30 min pre-incubation; DiFMUP 20 µM, 45 min, room temperature; 10-concentration dose-response
Where a name gives a salt, the structure may show the parent alone.

# compound, display.unit, IC50
data = [
    ("Cc1nccc(-c2c(C)nc(N3CCC4(CC3)Cc3nc(O)sc3[C@H]4N)c3ccnn23)c1Cl [Compound 218, hydrochloride]", "nM", 179),
    ("Cc1nccc(-c2c(C)nc(N3CCC4(CC3)Cc3c(F)cccc3[C@H]4N)c3ccnn23)c1Cl [Compound 92, formate]", "nM", 8),
    ("Cc1nc(N2CCC3(CC2)Cc2ncccc2[C@@H]3N)c2ccnn2c1-c1ccccc1F [Compound 136]", "nM", 383),
    ("Cc1nc(N2CCC3(CC2)Cc2ncccc2[C@H]3N)c2ccnn2c1-c1ccc2c(c1)CCO2 [Compound 188]", "nM", 7),
    ("Cc1nc(N2CCC3(CC2)Cc2ccc(C#N)cc2[C@H]3N)c2ccnn2c1-c1cnn(C)c1C (single isomer, unassigned) [Compound 211]", "nM", 8),
    ("Cc1nc(N2CCC3(CC2)Cc2ncccc2[C@H]3N)c2ccnn2c1-c1cccc(F)c1 [Compound 203]", "nM", 6),
    ("Cc1nc(N2CCC3(CC2)Cc2ncccc2[C@H]3N)c2ccnn2c1-c1ccc2nccnc2c1F [Compound 78, hydrochloride]", "nM", 12),
]
